method_summary: chemical genetic growth profiling, strain panel (AID 1159580);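 further: tested at 20 µM; growth read once vehicle control cultures reached saturation at 30 °C; 1 = growth at the plate median or of vehicle wells; lower values mean less growth of the strain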
test_settings: S. cerevisiae deletion strains, growth OD, locus YCL011C, strain gbp2, stronger effect = lower value
Hit rate of the full screen: of about 5,500 compounds, about 2,000 (36%) were called active. About 18% were inconclusive and are not listed. This is one part of the list.
metric: normalized growth
Enter the number alone.

Record excerpt, results attached:
• CC(=O)Oc1ccc(/C=C/c2cc(OC(C)=O)cc(OC(C)=O)c2)cc1 = 0.972
• C=C1c2cccc(O)c2C(O)=C2C(=O)[C@]3(O)C(O)=C(C(N)=O)C(=O)[C@@H](N(C)C)[C@@H]3[C@@H](O)[C@H]12 = 1.01
• CCC(C)C(=O)OC1[C@@H]2CC3=C4CC(=O)O[C@@H](c5ccoc5)[C@]4(C)CCC3[C@@](C)(C2=O)[C@@H](CC(=O)OC)C1(C)C (stereo not given in full) = 1.01

Entry CC(Cc1cccc(C(F)(F)F)c1)NCCOC(=O)c1ccccc1 (stereo not given) : reported normalized growth = ?
0.971

Entry CC(=O)O[C@H]1CC[C@@]2(C)C(=CC(=O)C3C4CCC(C(C)CCCC(C)C)[C@@]4(C)CCC32)C1 (stereo not given in full) : reported normalized growth = ?
0.994
